# Tested on: MS2 coat protein
# ASSAY_SUMMARY: apparent KD of MS2 coat protein; designed switch direction (-1 OFF switch, 1 ON switch): 1; higher = weaker reporter binding
# STATED_CONDITIONS: Eterna round: R95; input ligand: microRNA oligo, concentration not stated
Outcome label depends on apparent KD of MS2 coat protein relative to 20 nM: at/above gives Condition met, below gives Condition not met.

Q: Hi team, for AGUCCAGCGAGAGCUGGACAAAAGCAUGUACAUGAGGAUCACCCAUGUCAUGUACAAGCUUUUUGCUCGUCUUAAAA [Mat - hsa-mir-208a - Mod of JL - D5] (puzzle: Sensor for hsa-mir-208a) , is the recorded apparent KD of MS2 coat protein at or above 20 nM?
Ans: Condition not met

Q: Hi team, for AUAAAACAUGAGGAUCACCCAUGUCAACAAAGUCGAGGAUAUGGGCAAAUAAAAUAAGAACCAGAAGGCGUAUAAU [salish99_ss1_r3_034] (puzzle: Same State 1) , is the recorded apparent KD of MS2 coat protein at or above 20 nM?
Ans: Condition met

Q: Hi team, for AACAAUCUAUCUGAGGAUAUCAUGAAAUAAACAUGAGGAUCACCCAUGUGCAGGAAAACUGCAUAUGAGAAGGUAGAUAGAUUGA [salish99_ss2_r3_050] (puzzle: Same State 2) , is the recorded apparent KD of MS2 coat protein at or above 20 nM?
Ans: Condition met

Q: Hi team, for CGGGUACAUGAGGAUCACCCAUGUGGGAGGGAUGCAGGAUAUGUGGGAAAAGGGUAUGUAACAGAAGGGCAAGGAG [JR_SS!_Sub014] (puzzle: Same State 1) , is the recorded apparent KD of MS2 coat protein at or above 20 nM?
Ans: Condition met

Q: Hi team, for CUACUACAUGAGGAUCACCCAUGUUGUAGUGAUGCAGGAUAUGUGUGACCAGAAGAUGAAACAGAAGGGCAAAGAA [JR_SS!_Sub002] (puzzle: Same State 1) , is the recorded apparent KD of MS2 coat protein at or above 20 nM?
Ans: Condition not met

Q: Hi team, for GGUCCAGCCUGAGCUGGACAAAAGCAUGUACAUGAGGAUCACCCAUGUUCAUGUACAAGCUUUUUGCUCGUCUUACC [salish99_208a_r3_090x] (puzzle: Sensor for hsa-mir-208a) , is the recorded apparent KD of MS2 coat protein at or above 20 nM?
Ans: Condition not met

====

# Tested on: MS2 coat protein
# ASSAY_SUMMARY: apparent KD of MS2 coat protein; higher = weaker reporter binding
# STATED_CONDITIONS: Eterna round: R107; input ligand: none
VALUE_KIND: apparent KD of MS2 coat protein (nM)
Answer format: numeric, nM implied, no suffix.

Q: Report apparent KD of MS2 coat protein for UUUAUUUAUUUAUUUAUUUAUUUAACAGAAGGAGCGUGGAUUAACACAGGUAGGUCGCUGACAUGAGGAUCACCCAUGUAUUAUU [SSAA #1]
Ans: 28.4

Q: Report apparent KD of MS2 coat protein for UGUUUGGUGCGCGAGUGUUGGAUAAUUGAUACCAGUGUAGAUGUGCGCCCUUGGCAGCGAAUCCGAACAUGAGGAUCACCCAUGU [5.Z]
Ans: 27.1

Q: Report apparent KD of MS2 coat protein for CGGUACAUGAGGAUCACCCAUGUGUCGGAUACCAGAGAGCCGGCUCUCCCUUGGCAGCUGGUGCGACAUGAGGAUCACCCAUGUG [Exclusion Theophylline A GF19]
Ans: 61.6

====

# Test system: MS2 coat protein
# ASSAY_SUMMARY: apparent KD of MS2 coat protein; higher = weaker reporter binding
# STATED_CONDITIONS: Eterna round: R107; input ligand: theophylline 20 uM
Give measured apparent KD of MS2 coat protein for each item. Keep answers brief.
Answer format: numeric, nM implied, no suffix.

Q: Report apparent KD of MS2 coat protein for GAGCUCGUGGACUGGCGUGCUCCGCUCCGUCGAGGACCGGUACGGCCGCCACUCGACAUGAGGAUCACCCAUGUGCGAGCUCGCU [#1 Exclusion - Tryptophan A Attempt #22 (HarryS)]
Ans: 113

Q: Report apparent KD of MS2 coat protein for AUUCAUGGAAACAUGACAUACAUUACCGGUCGAGGACCGGUACGGCCGCCACUCGGUUGGUGGCACAUGAGGAUCACCCAUGUUA [SS Tryp A #11]
Ans: 44.2

Q: Report apparent KD of MS2 coat protein for ACGUAAUGCAGAAGGAGCGUCAUUUUAAAACAUGAGGAUCACCCAUGUAAUAUUUUUGUGUGACAGGUAGGUCGCUGAAGUACGA [JR_SSArginiB_Sub007]
Ans: 17.7

Q: Report apparent KD of MS2 coat protein for AACAUGAGGACGGAUACCAGUCACAUGAGGAUCACCCAUGUACAUGAGGAUCACCCAUGUGGCCCUUGGCAGCCGCAUGUGAUCA [Exclusion Theophylline B 4]
Ans: 308

Q: Report apparent KD of MS2 coat protein for AAUAGACAUGAGGAUCACCCAUGUAUGGAAGGAGCGGUGAAUAAGCCAGGUAGGUCGCCAGUGUGAGGGUUAUCUAUGUAAUAAA [#19 Exclusion - Arginine A]
Ans: 41.6

Q: Report apparent KD of MS2 coat protein for AGUCUAUGAAGAGAUACCAGUGAGAGACAUAGACAUGAGGAUCACCCAUGUGACAUGAAGCACCCUUGGCAGCUCAACGAGCUCA [Theo B SS t1]
Ans: 50

Q: Report apparent KD of MS2 coat protein for GACCGGUUAUAGUGCGAUUGUCUUGUGGAAGGAGCGCAGAGGACUGCAGGUAGGUCGCCACAUGAGGAUCACCCAUGUCAGGAUA [Tirevete]
Ans: 33.4

Q: Report apparent KD of MS2 coat protein for AACCGAGGCUAUCCUCUAAGAAAAUGUGAUACCAGAAUAAUUUUAUUCCCUUGGCAGCAUGACAUGAGGAUCACCCAUGUGUCUU [SSTheo A #6]
Ans: 131

====

# System: K4 kissing-loop RNA reporter;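 note: bound reporter read as fluorescence of individual clusters on recovered sequencing chips by microscopy, with normalized cluster intensities fitted with a binding model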
# ASSAY_SUMMARY: apparent KD of K4 kissing-loop reporter; higher = weaker reporter binding
# STATED_CONDITIONS: Eterna round: R107; input ligand: arginine 13.2 mM
VALUE_KIND: apparent KD of K4 kissing-loop reporter
Could you give the number and then its unit, please?

Q: Report apparent KD of K4 kissing-loop reporter for AGACGCCAGUCGGCCGCCACUCACAGCAGUGAUGUUGCUGAGAAUCUAGAAGAGUGAUGUUCUUAGAGGACCGGGACUCCAGUCG [Same State Tryptophan B GF 7]
Ans: 363 nM

Q: Report apparent KD of K4 kissing-loop reporter for UGAUACCAGACGGCCGCCACUCCCGCAGGUCAAAGACCUGCGAAGAUGGUUCUUCAGUGAUGUUGGAGGACCGGGUCUGGUAUCU [FiskerMod 23 - Jieux - Exclusion - Tryptophan B]
Ans: 128 nM

Q: Report apparent KD of K4 kissing-loop reporter for UGUUGAGUGAUGUUCGAUGUAGUUCAUUCAGAGGAUAUAGGGUGGGCUAGAAGGCUGAAAAGUGCUUCGAGUGAUGUUCGAAGAU [Exclusion FMN A GF 7]
Ans: 77.7 nM

Q: Report apparent KD of K4 kissing-loop reporter for UUGAGCCGGACUCAAGUCCGGCUCUGCGAGCGAGGACCGGUACGGCCGCCACUCGGUGCAGUGAUGUUGCAUGGCCGCAAGGCCG [#2 Exclusion - Tryptophan A Attempt #13 (HarryS)]
Ans: 133 nM

Q: Report apparent KD of K4 kissing-loop reporter for UGAUAGGACAGAAGGAGCGGGCUAGUCAAAGACUAGCAAACGUUAAUAACAGGAGUGAUGUUCCAGGUAGGUCGCUGUCCUAUCU [ArgBX 25 #SwitchBubble #StaticStem]
Ans: 120 nM

Q: Report apparent KD of K4 kissing-loop reporter for ACUAAGGUUUUUGGAGCAGUGAUGUUGCUCCGAGGACCGGUACGGCCGCCACUCGGUGCAUGUAUGCGCUUCACUCCGGAAGUUG [Bieron]
Ans: 140 nM

Q: Report apparent KD of K4 kissing-loop reporter for AACUGUCAAGGACAACAUUACUGAGGUGAUACCAGCAUCGAAAGAUGCCCUUGGCAGCACCAACUUGCAGUGAUGUUGCAAGUAA [Design6]
Ans: 184 nM

Q: Report apparent KD of K4 kissing-loop reporter for ACACUAUCGUCAUAGACGGUAGUGAACACACAGGAUAUGAGUGAUGUUAGAAGGGUGUAAGACUGUAUCGAAUAGAUACAGUCAA [FmnA 7 #K4BetweenAptamer #OpenEnded]
Ans: 142 nM

Q: Report apparent KD of K4 kissing-loop reporter for AGUGCACUGUCAGGAUAUAUACAGUGAUGUUGUGUAUGUCAGCAAGUCAAAGACUUGCUCUUCUGUGUAGAAGGGACUGUGUACA [Omei KL FMN B Exc A v4]
Ans: 118 nM

Q: Report apparent KD of K4 kissing-loop reporter for UGAUACCAGACGGCCGCCACUGGGACCGGGAGUGAUGUUCCAAAUAAAAGAAACUCGGCCGCCACUAGGACCGGGUCUGGUAUCU [TrypBX 30 #DoubleAptamer #SwitchBubble]
Ans: 278 nM

Q: Report apparent KD of K4 kissing-loop reporter for AAGUGAUGUUGUAGUGAUGUUGUGAUGUUGCAGGAUAUAUAGUGAUGUAGAAGGGUAUGUGCAGUUUUCUUUUUUGAGUGUUGAU [aavamullin]
Ans: 30.8 nM

Q: Report apparent KD of K4 kissing-loop reporter for UAAUGCAUGACGGCCGCCACUAGUACUGGAGUGAUGUUGUGGUACGGCGGCAGUUUAGGGUGGACUAGGACCGGGUCAUGCAUAU [KL-XTryp-B10 #analogue]
Ans: 314 nM

Q: Report apparent KD of K4 kissing-loop reporter for AAAAUAAACCAGUGAUGUUGGUGUCUAGAUACCAGCGACGAAAGUCGCCCUUGGCAGCUAUGGACGUACAAAAUAAGUACGUCCU [MatMod 6 - Jieux - Same State - Theophylline A]
Ans: 459 nM

Q: Report apparent KD of K4 kissing-loop reporter for CGCGCCCAGCCGGAUACCAGUGACCCGCUGGGAACCGCGGGCCCAGAGUGAUGUUCGGGACACCCUUGGCAGCCGCCUGGGCGGC [#2 Same State - Theophylline B Attempt #9 (HarryS)]
Ans: 229 nM

Q: Report apparent KD of K4 kissing-loop reporter for `GCCGUAGAUUGAAGGAGCGAGGCUACUUAAAGACCGAGUGAUGUUCGGGAACGUGAAACUCCUCAGGUAGGUCGCAAUCUACGGC`
Ans: 235 nM

Q: Report apparent KD of K4 kissing-loop reporter for UUUAUAAUGUCGGCCGCCACUGGAUUAAUAUUUGUAUAAUCUAGUUCUGAGUGAUGUUUAGAGUCCAGGACCGGGACAUUUGUUA [#10 K4 Tryptophan B Exclusion]
Ans: 515 nM

Q: Report apparent KD of K4 kissing-loop reporter for CCAACAACGAGUGAUGUUCGUUGAUCUGAAGGAGCGUCAAUAAUGACAGGUAGGUCGCAGAUAAUUGGAUAUAGGGCAAUAGCUC [Same State Arginine A GF13]
Ans: 116 nM

// data source = the supplement of paper PMC9170038
